Kindly supply the reported IC50 in HT-29 assay, GRO-α secretion values for the records listed here.
# system: human IL-17A (human, UniProt Q16552 24-155, limits assumed)
# measurement-protocol: cell-based or functional assay
One number for each entry, in ng/mL.

Examples from the recorded data:
**Q:** Need IC50 in HT-29 assay, GRO-α secretion, item PRO571 (humanized anti-IL-17A scFv, CDR graft of 27-31-C04) (scFv, VL-linker-VH; also called 27-31-C04-sc01; 27_31_C04_sc01) scFv: DIQMTQSPSSLSASVGDRVTITCQASESIYRYLSWYQQKPGKAPKLLIYLASTLTSGVPSRFSGSGSGTDFTLTISSLQPEDFATYYCQSNFGTASTTYYNTFGGGTKLTVLGGGGGSGGGGSGGGGSGGGGSEVQLVESGGGLVQPGGSLRLSCAASGFSFSGFYYMCWVRQAPGKGLEWIGCIDTGDGTTYYASWAKGRFTISRDNSKNTVYLQMNSLRAEDTAVYYCARDAAYGGYAYPAHGMDLWGQGTLVTVSS
**A:** 0.1

**Q:** What does the data say about its IC50 in HT-29 assay, GRO-α secretion? Entry: PRO592 (humanized anti-IL-17A scFv, STR graft of 27-31-C04) (scFv, VL-linker-VH; also called 27-31-C04-sc02; 27_31_C04_sc02) scFv: DIQMTQSPSSLSASVGDRVTITCQASESIYRYLSWYQQKPGKAPKLLIYLASTLTSGVPSRFSGSGSGTDFTLTISSLQPEDFATYYCQSNFGTASTTYYNTFGGGTKLTVLGGGGGSGGGGSGGGGSGGGGSEVQLVESGGGLVQPGGSLTLSCAASGFSFSGFYYMCWVRQAPGKGLEWIGCIDTGDGTTYYASWAKGRFTISRDNSKNTVYLQMNSLRAEDTAVYYCARDAAYGGYAYPAHGMDLWGPGTLVTVSS
**A:** 0.13

Consider the additional binder presented here.
**Q:** So what's the measured IC50 in HT-29 assay, GRO-α secretion for this one? A2 (humanized anti-IL-17A scFv, STR graft of 27-07-G02) (scFv, VL-linker-VH; also called 27-07-G02-sc02) scFv: DIQMTQSPSSLSASVGDRVTITCQASQTINYWLAWYQQKPGKPPKLLIYRASTLASGVPSRFSGSGSGTDFTLTISSLQPEDFATYYCQNYYYSTSRSYGFGGGTKLTVLGGGGGSGGGGSGGGGSGGGGSEVQLVESGGGLVKPEGSLRLSCAASGFSFSSDYWMCWVRQAPGKGLEWIACIYAGDVDDTDYASWARGRFTISRDNSKNTVYLQMNSLRAEDTAVYYCARVDGFDITYFDLWGQGTLVTVSS
**A:** 0.1

The reported numbers originate from patent US20220127350A1.
